- System: HEp-2
- assay_notes: Antiproliferative activity against human Hep2 cells after 72 hrs by MTT assay
- Assay type: functional, cell-based
- measurement_conditions: Homo sapiens, HEp-2, 72 h
Provide the recorded IC50 for the entries that follow.
Only the number, expressed in µM, is required.

Given the compound "Nc1ccc2c(ccc3nc4ncc(Br)cc4n32)c1" and test system HEp-2, the measured IC50 is 14.1

Given the compound "O=[N+]([O-])c1ccc(Cl)c(/C=C/c2nc3ncccc3[nH]2)c1" and test system HEp-2, the measured IC50 is 49.4

Given the compound "Brc1cnc2nc3ccc4ccc(C5=NCCN5)cc4n3c2c1.Cl" and test system HEp-2, the measured IC50 is 4.01

Given the compound "N#Cc1ccc2ccc3nc4ncccc4n3c2c1" and test system HEp-2, the measured IC50 is 47.3

Given the compound "O=[N+]([O-])c1ccc2c(ccc3nc4ncc(Br)cc4n32)c1" and test system HEp-2, the measured IC50 is 31.1

Given the compound "C[n+]1cccc2c1nc1ccc3cc([N+](=O)[O-])ccc3n12" and test system HEp-2, the measured IC50 is 31.5

* * *

- Test system: SK-BR-3
- assay_notes: Antiproliferative activity against human SKBR3 cells after 72 hrs by MTT assay
- Assay type: functional, cell-based
- measurement_conditions: Homo sapiens, SK-BR-3, 72 h
measured_endpoint: pIC50
Field pIC50 (float): negative decimal logarithm of the concentration in molar.

Record "Clc1ccccc1/C=C/c1nc2ncccc2[nH]1" . Reported pIC50: 5.24

Record "N#Cc1ccc(/C=C/c2nc3ncccc3[nH]2)cc1" . Reported pIC50: 4.06

Record "Nc1ccc2c(ccc3nc4ncc(Br)cc4n32)c1" . Reported pIC50: 5.11

Record "N#Cc1ccc(/C=C/c2nc3ncc(Br)cc3[nH]2)cc1" . Reported pIC50: 5.37

Record "Cl.c1cnc2nc3ccc4ccc(C5=NCCN5)cc4n3c2c1" . Reported pIC50: 5.66

Record "O=[N+]([O-])c1ccc2c(ccc3nc4ncccc4n32)c1" . Reported pIC50: 4.37

Record "Clc1cccnc1/C=C/c1nc2ncccc2[nH]1" . Reported pIC50: 4.27

Record "Brc1cnc2nc3ccc4ccc(C5=NCCN5)cc4n3c2c1.Cl" . Reported pIC50: 5.26

* * *

Provide the recorded pIC50 for the entries that follow.
- Test system: SK-BR-3
- assay_notes: Antiproliferative activity against human SKBR3 cells after 72 hrs by MTT assay
- Assay type: functional, cell-based
- measurement_conditions: Homo sapiens, SK-BR-3, 72 h
Field pIC50 (float): negative decimal logarithm of the concentration in molar.

Record c1ccc2c(c1)ccc1nc3ncccc3n12 [7,8,11b-triazabenzo[c]fluorene] . Reported pIC50: 4.08

Record "C[n+]1cccc2c1nc1ccc3ccccc3n12.[I-]" . Reported pIC50: 5.45

Record "O=[N+]([O-])c1ccc2c(ccc3nc4ncc(Br)cc4n32)c1" . Reported pIC50: 5.09

Record "O=[N+]([O-])c1ccc(Cl)c(/C=C/c2nc3ncccc3[nH]2)c1" . Reported pIC50: 5.74

Record "O=[N+]([O-])c1ccc(Cl)c(/C=C/c2nc3ncc(Br)cc3[nH]2)c1" . Reported pIC50: 4.22

Record "C[n+]1cccc2c1nc1ccc3cc([N+](=O)[O-])ccc3n12" . Reported pIC50: 4.47

Record "C(=C\c1nc2ncccc2[nH]1)/c1ccccc1" . Reported pIC50: 5.69

Record "Nc1ccc2c(ccc3nc4ncccc4n32)c1" . Reported pIC50: 5.53

Record O=c1[nH]cc(F)c(=O)[nH]1 [FLUOROURACIL] . Reported pIC50: 4.42

Record "N#Cc1ccc2ccc3nc4ncccc4n3c2c1" . Reported pIC50: 4.17
